Data origin, for the record: patent US11053218B2

# tgt: GSPT1 (Homo sapiens, UniProt P15170+Q96SW2)
# Sequence (P15170 whole entry): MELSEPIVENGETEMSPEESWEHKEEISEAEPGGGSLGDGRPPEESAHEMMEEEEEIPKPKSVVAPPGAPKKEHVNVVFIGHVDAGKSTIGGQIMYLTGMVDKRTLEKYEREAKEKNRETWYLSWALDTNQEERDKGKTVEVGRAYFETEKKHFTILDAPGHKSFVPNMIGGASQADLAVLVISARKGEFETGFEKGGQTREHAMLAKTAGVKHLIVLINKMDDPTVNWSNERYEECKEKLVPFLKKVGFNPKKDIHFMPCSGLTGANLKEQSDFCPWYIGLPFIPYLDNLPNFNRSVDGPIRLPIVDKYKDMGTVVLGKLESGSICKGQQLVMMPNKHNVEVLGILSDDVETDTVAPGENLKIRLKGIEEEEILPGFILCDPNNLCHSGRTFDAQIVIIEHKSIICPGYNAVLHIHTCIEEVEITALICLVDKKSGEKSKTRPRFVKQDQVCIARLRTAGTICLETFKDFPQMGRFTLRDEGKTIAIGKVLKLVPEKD
# Sequence (Q96SW2 whole entry): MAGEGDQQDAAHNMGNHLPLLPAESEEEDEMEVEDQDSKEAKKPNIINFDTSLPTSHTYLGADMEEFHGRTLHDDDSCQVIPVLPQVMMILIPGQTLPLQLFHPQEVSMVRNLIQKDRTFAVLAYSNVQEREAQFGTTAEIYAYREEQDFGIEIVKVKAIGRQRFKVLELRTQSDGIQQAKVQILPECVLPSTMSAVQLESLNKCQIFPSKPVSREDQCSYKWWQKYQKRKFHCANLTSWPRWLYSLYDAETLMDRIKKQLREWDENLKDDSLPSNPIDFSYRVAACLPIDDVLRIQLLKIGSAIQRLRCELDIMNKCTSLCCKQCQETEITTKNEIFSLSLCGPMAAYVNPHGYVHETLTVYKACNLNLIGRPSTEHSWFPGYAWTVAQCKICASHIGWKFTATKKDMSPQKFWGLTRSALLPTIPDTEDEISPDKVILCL
# Sequence (Q16531 whole entry partner): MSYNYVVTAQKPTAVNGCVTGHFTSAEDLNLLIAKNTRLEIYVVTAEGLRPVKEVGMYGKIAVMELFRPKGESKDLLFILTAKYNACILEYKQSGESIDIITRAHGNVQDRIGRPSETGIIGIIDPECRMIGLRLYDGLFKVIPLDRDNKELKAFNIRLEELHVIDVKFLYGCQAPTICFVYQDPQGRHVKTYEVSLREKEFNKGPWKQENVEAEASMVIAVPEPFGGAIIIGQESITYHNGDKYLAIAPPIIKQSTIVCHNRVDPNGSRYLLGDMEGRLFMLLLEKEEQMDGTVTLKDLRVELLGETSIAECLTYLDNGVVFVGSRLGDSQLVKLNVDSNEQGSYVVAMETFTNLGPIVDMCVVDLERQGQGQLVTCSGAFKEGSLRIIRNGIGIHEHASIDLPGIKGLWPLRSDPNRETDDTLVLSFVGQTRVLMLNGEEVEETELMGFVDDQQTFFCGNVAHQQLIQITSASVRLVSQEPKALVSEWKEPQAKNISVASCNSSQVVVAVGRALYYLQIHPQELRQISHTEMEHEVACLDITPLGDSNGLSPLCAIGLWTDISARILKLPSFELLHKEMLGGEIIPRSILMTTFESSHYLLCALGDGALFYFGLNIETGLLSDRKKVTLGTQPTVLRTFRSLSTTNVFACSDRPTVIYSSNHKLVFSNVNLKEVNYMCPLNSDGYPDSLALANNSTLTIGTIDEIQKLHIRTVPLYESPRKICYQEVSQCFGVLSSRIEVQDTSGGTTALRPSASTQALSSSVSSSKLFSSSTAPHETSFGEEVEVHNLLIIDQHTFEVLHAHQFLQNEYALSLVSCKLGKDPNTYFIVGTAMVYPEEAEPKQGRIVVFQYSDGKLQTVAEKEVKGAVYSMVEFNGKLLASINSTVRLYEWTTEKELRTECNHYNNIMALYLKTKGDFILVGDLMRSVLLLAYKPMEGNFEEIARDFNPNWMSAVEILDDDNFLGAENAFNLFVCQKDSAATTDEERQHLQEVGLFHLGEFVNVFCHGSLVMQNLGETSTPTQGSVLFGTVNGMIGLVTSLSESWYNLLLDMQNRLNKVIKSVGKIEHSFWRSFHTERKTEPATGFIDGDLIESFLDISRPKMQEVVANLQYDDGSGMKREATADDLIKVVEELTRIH
# measurement.protocol: Prolabel quantification of GSPT1 protein levels in 293GT cells
# Assay type: cell-based
# assay.setup: Prolabel assay, read-out: GSPT1 EC50
recorded.metric: DC50

Sure, the documented DC50 for O=C1CCC(N2Cc3cc(C4CCN(Cc5ccc6ccc(F)cc6n5)CC4)ccc3C2=O)C(=O)N1 (stereo not shown) is > 30 µM

Sure, the documented DC50 for CC(=O)Nc1ccc(CN2CCC(c3ccc4c(c3)CN(C3CCC(=O)NC3=O)C4=O)CC2)cc1 (stereo not shown) is > 30 µM

Sure, the documented DC50 for Cc1ccc(CN2CCC(c3ccc4c(c3)CN(C3CCC(=O)NC3=O)C4=O)CC2)cc1 (stereo not shown) is > 50 µM

Sure, the documented DC50 for O=C1CCC(N2Cc3cc(C4CCCNCC4)ccc3C2=O)C(=O)N1 (single isomer, unassigned) is > 50 µM
